Tested on: CAKI-1 renal
Assay: NCI tumour cell line growth inhibition, 48 h; in the data active = GI50 below about 0.43 µM; inactive = the rest
Answer with one of the outcomes active, inactive

Input: Each compound tested received a call. Report the one for O=[N+]([O-])c1ccc2c(c1)[O][Sn]([I])([I])[O]2 .
Output: inactive

Input: Recorded call for COc1ccc(CN2c3ccccc3CCc3ccccc32)cc1F ?
Output: inactive

Input: Entry CCC(c1cccc(O)c1)C(CC)c1cccc(O)c1 (stereo unspecified) : call = ?
Output: inactive

Input: So what was the verdict on O=[N+]([O-])c1ccc2c(c1)[O][Sn][O]2 in this test?
Output: inactive

Input: Kindly provide the recorded test outcome for the following compound: CSc1ccc(/C=C2\C=C(CC(=O)NCc3ccc(C(=O)c4ccccc4)cc3)c3cc(F)ccc32)cc1
Output: active

Input: State the result this test recorded for CCN(CC)CCCC(C)Nc1c2ccc(C)cc2nc2ccc(OC)cc12 (stereo unspecified) .
Output: inactive

---

Tested on: HCT-116 colon
Experiment: NCI tumour cell line growth inhibition, 48 h
Could you please report measured TGI for the items listed next?

Input: For CC1(Cl)CC2C(CC1Sc1nnnn1-c1ccccc1)C2(C)C (stereo unspecified) , write its TGI.
Output: > 100 µM

Input: Return TGI (reported value) for this compound: CCN(CC)CCCC(C)Nc1c2ccc(C)cc2nc2ccc(OC)cc12 (stereo unspecified)
Output: 6.46 µM

Input: Answer with the recorded TGI of N#CC(NNC(=O)c1ccccc1O)c1cccc(O)c1 (stereo unspecified) only.
Output: > 100 µM

Input: Tell me its TGI given CC(=O)OCC=C(CCl)CCC(Br)C(C)(C)Br (mixture of isomers) as the entry.
Output: > 10 µM

Input: Give the reported TGI for this compound. CCOC(=O)C(CS)NC(=O)CCCCCCCC(=O)NC(CS)C(=O)OCC (stereo unspecified)
Output: > 100 µM

Input: Supply reported TGI belonging to this compound: c1ccc2c(c1)nc1n2CCSC1
Output: > 100 µM

Input: Tell us which TGI value is on record for O=c1ccc(=O)c2c(=O)c3ccccc3c(=O)c1=2
Output: 61.1 µM

Input: Consider the compound Cc1ccc(-c2n[nH]c(=O)[nH]2)cc1[N+](=O)[O-] and give its recorded TGI.
Output: > 100 µM

Input: Provide only the value of recorded TGI for Cc1ccc2c(c1)C(c1cccc3ccccc13)OC2=O (stereo unspecified)
Output: > 100 µM

Input: Assign TGI to the following record: COc1ccc(Cl)cc1Nc1nc(C(F)(F)F)ccc1C(=O)N/N=C/c1cc(OC)c(OC)c(OC)c1
Output: 7.66 µM

Input: Retrieve TGI measured for CCOC(=O)[C@H]1Nc2ccc(OC)cc2C2c3ccccc3CC21 (stereo partly specified) and print it.
Output: > 100 µM

---

Tested on: IGROV1 ovarian
Test: NCI tumour cell line growth inhibition, 48 h
Record form. Attribute: GI50. Fill in for each entry.

Input: // output GI50; input CCN(CCNc1ccc(C)c2sc3ccccc3c(=O)c12)CC(C)(C)O ; system IGROV1 ovarian
Output: 13.2 µM

Input: Provide GI50, tested on IGROV1 ovarian, for COc1ccc(-c2cn[nH]c2-c2cc(OC)c3c(c2)OCCO3)cc1 .
Output: 0.384 µM

Input: Name the value of GI50 reported for COc1ccc(C(=O)N2c3ccccc3Sc3ccccc32)c(C(F)(F)F)c1 when tested on IGROV1 ovarian.
Output: 2.2 µM

Input: Enter recorded GI50 with IGROV1 ovarian for CC(C)(C)NC(=O)[C@H]1C[C@H]2CCCC[C@H]2CN1C[C@@H](O)[C@H](Cc1ccccc1)NC(=O)[C@H](CC(N)=O)NC(=O)c1ccc2ccccc2n1 here.
Output: 15.4 µM

Input: Print IGROV1 ovarian GI50 for COc1ccc(Cl)cc1Nc1nc(C(F)(F)F)ccc1C(=O)N/N=C/c1cc(OC)c(OC)c(OC)c1 .
Output: 0.346 µM

Input: Enter GI50 (test system IGROV1 ovarian) for CCC(c1cccc(O)c1)C(CC)c1cccc(O)c1 (stereo not drawn)
Output: 10.8 µM

Input: Fill in: GI50 on IGROV1 ovarian, entry COc1ccc(C2CC(n3nnnc3-c3ccccc3)=NN2)cc1 (stereo not drawn)
Output: 2.44 µM

Input: Recall the reported GI50 of COc1cc2nc(-c3ccc(C(F)(F)F)cc3)cc(OCCCN3CCCCC3)c2cc1OC on IGROV1 ovarian and write it down.
Output: 0.651 µM

Input: State GI50 (IGROV1 ovarian) of O=[N+]([O-])c1ccc2c(c1)[O][Sn][O]2 .
Output: 115 µg/mL

Input: Fill in: GI50 on IGROV1 ovarian, entry COc1cc(Cn2c(-c3nonc3N)nc3ccccc32)ccc1C
Output: 1.22 µM

Input: Would you please give the reported GI50 of N#C[C@@H]1C(n2ccc(N)nc2=O)O[C@H](CO)[C@H]1O (stereo partly drawn) with IGROV1 ovarian?
Output: > 100 µM

Input: Find GI50 for Oc1ccccc1-c1nc2c3ccccc3c3ccccc3c2[nH]1 on IGROV1 ovarian and write it down.
Output: 0.0614 µM

Input: # lookup: IGROV1 ovarian GI50, key = COC(=O)CCCCCN=Cc1c(O)c(O)c(C(C)C)c2cc(C)c(-c3c(C)cc4c(C(C)C)c(O)c(O)c(C=NCCCCCC(=O)OC)c4c3O)c(O)c12
Output: 1.76 µM
